System: Vero
Assay Info: Cytotoxicity against african green monkey Vero cells after 48 hrs by Neutral Red assay
Format: cell-based
Test Conditions: Chlorocebus sabaeus
pIC50: −log10 of the molar value.
// pIC50 lookup, one value per entry

[
  {
    "Molecule": "Nc1nccc(-c2cn(C(=O)N3CCOCC3)c3ccccc23)n1",
    "Measured Quantity": "pIC50",
    "Recorded Measurement": "< 4.11"
  },
  {
    "Molecule": "Nc1nccc(-c2cn(C(=O)c3ccccc3)c3ccc(Br)cc23)n1",
    "Measured Quantity": "pIC50",
    "Recorded Measurement": "< 4.19"
  },
  {
    "Molecule": "Cc1noc(C)c1Cn1cc(-c2ccnc(N)n2)c2cc(Br)ccc21",
    "Measured Quantity": "pIC50",
    "Recorded Measurement": "< 4.20"
  }
]

Kindly note the recorded pIC50 for Nc1nccc(-c2cn(Cc3ccc(Cl)s3)c3ccccc23)n1 , which is < 4.13

Kindly note the recorded pIC50 for O=c1[nH]c(-c2c[nH]c3ccc(I)cc23)nc2ccccc12 , which is < 4.19

Kindly note the recorded pIC50 for COCCn1cc(-c2ccnc(N)n2)c2cc(Br)ccc21 , which is < 4.14

Kindly note the recorded pIC50 for CN1CCN(C(=O)n2cc(-c3ccnc(N)n3)c3cc(Br)ccc32)CC1 , which is < 4.22

Kindly note the recorded pIC50 for CCOc1ccccc1C(=O)n1cc(-c2ccnc(N)n2)c2ccccc21 , which is < 4.15

Kindly note the recorded pIC50 for Nc1nccc(-c2cn(C(=O)c3ccccc3)c3ccccc23)n1 , which is < 4.10

Kindly note the recorded pIC50 for COc1cccc2c1C(=O)c1c(O)c3c(c(O)c1C2=O)C[C@@](O)(C(=O)CO)C[C@@H]3O[C@H]1C[C@H](N)[C@H](O)[C@H](C)O1 , which is 5.15

Kindly note the recorded pIC50 for Nc1nccc(-c2cn(Cc3c4ccccc4cc4ccccc34)c3ccc(Br)cc23)n1 , which is < 4.28

---

Assay Info: Selectivity index, ratio of IC50 for african green monkey Vero cells to IC50 for Plasmodium falciparum W2
Format: toxicity, cell-based
Test Conditions: read-out: Ratio IC50
// selectivity ratio lookup, one value per entry

Consider the worked cases shown below.
[
  {
    "Sample Smiles": "Cc1noc(C)c1Cn1cc(-c2ccnc(N)n2)c2cc(Br)ccc21",
    "selectivity ratio": "> 4.3"
  },
  {
    "Sample Smiles": "Nc1nccc(-c2c[nH]c3ccc(Br)cc23)n1",
    "selectivity ratio": "> 7.4"
  }
]

Kindly note the recorded selectivity ratio for Nc1nccc(-c2cn(C(=O)c3ccccc3)c3ccc(Br)cc23)n1 , which is > 16

Kindly note the recorded selectivity ratio for Nc1nccc(-c2cn(C(=O)c3ccccc3)c3ccccc23)n1 , which is > 17.4

Kindly note the recorded selectivity ratio for Nc1nccc(-c2cn(C(=O)N3CCOCC3)c3ccccc23)n1 , which is > 25.1

---

Assay Info: Selectivity index, ratio of IC50 for pig LLC-PK1 cells to IC50 for Plasmodium falciparum D6
Type: toxicity, cell-based
Test Conditions: read-out: Ratio IC50
Measured Quantity: selectivity ratio

Consider the worked cases shown below.
[
  {
    "Sample Smiles": "Nc1nccc(-c2cn(Cc3c4ccccc4cc4ccccc34)c3ccccc23)n1",
    "Measured Quantity": "selectivity ratio",
    "Recorded Measurement": "> 8.9"
  },
  {
    "Sample Smiles": "Nc1nccc(-c2c[nH]c3ccccc23)n1",
    "Measured Quantity": "selectivity ratio",
    "Recorded Measurement": "> 11.1"
  },
  {
    "Sample Smiles": "Nc1nccc(-c2cn(C(=O)c3ccccc3)c3ccccc23)n1",
    "Measured Quantity": "selectivity ratio",
    "Recorded Measurement": "> 7"
  },
  {
    "Sample Smiles": "Cc1noc(C)c1Cn1cc(-c2ccnc(N)n2)c2ccccc21",
    "Measured Quantity": "selectivity ratio",
    "Recorded Measurement": "> 6.3"
  }
]

Continue with the compound presented below.
Kindly note the recorded selectivity ratio for Nc1nccc(-c2cn(C(=O)c3ccccc3)c3ccc(Br)cc23)n1 , which is > 8.5
